Mark MET for reported log10 vapour pressure (mmHg) of -4 or greater; mark NOT MET for anything smaller.

query: Entry CCC(Cl)(Cl)Cl : is its log10 vapour pressure (mmHg) no less than -4?
result: MET

query: Same lookup for CCCCCCCCSC(=O)Oc1cc(Cl)nnc1-c1ccccc1 , please.
result: NOT MET

query: Same lookup for CC(C=O)c1ccccc1 (centres undefined) , please.
result: MET

query: Same lookup for CCCCOC , please.
result: MET

query: Same lookup for CCOC(C)(C)C , please.
result: MET

query: Same lookup for CCCOC(=O)NCCCN(C)C.Cl , please.
result: NOT MET

query: Same lookup for CCCC[C@@H](O)CCC , please.
result: MET

query: Same lookup for Cc1cc(C)c(C)c(C)c1 , please.
result: MET

query: Same lookup for CCCCCCC(C)Cl (centres undefined) , please.
result: MET

query: Same lookup for CCCCCCCCCCCCCCCCCCCC , please.
result: NOT MET

query: Same lookup for O=C([O-])C(F)(F)C(F)F.[Na+] , please.
result: MET

query: Same lookup for CC(C)(C)NSc1nc2ccccc2s1 , please.
result: NOT MET

query: Same lookup for C1OCOCO1 , please.
result: MET

query: Same lookup for CC1CCCCC1=O (centres undefined) , please.
result: MET

query: Same lookup for C=COCCCl , please.
result: MET

query: Same lookup for CC(C)(C)C(O)C(Oc1ccc(Cl)cc1)n1cncn1 (centres undefined) , please.
result: NOT MET

query: Same lookup for CCC(=O)NC , please.
result: MET

query: Same lookup for Cc1cc(C)c(N)cc1C , please.
result: MET

query: Same lookup for Clc1ccccc1-c1nnc(-c2ccccc2Cl)nn1 , please.
result: NOT MET

query: Same lookup for O=C(O)c1ccc(Br)cc1 , please.
result: NOT MET

query: Same lookup for CCC(C)CS (centres undefined) , please.
result: MET

query: Same lookup for O=C(O)C(Cl)Cl , please.
result: MET

query: Same lookup for CCCOCC(C)O (centres undefined) , please.
result: MET

query: Same lookup for C=CCN(CC=C)C(=O)CCl , please.
result: MET

====

Measured metric: boiling point (°C)
The reply should contain only the number, in °C.

query: # input compound: CC(CCO)CC(C)(C)C (stereo not drawn) ; wanted: its boiling point
result: 194

query: Same lookup for CCCCCCCC(=O)Cl , please.
result: 196

query: Same lookup for SCCCCS , please.
result: 196

====

// returns 0 (no) unless melting point is strictly below 60 °C, in which case 1 (yes)

query: # TODO verify melting point < 60 °C strictly for this compound: CN1[C@@H]2CC[C@H]1C[C@@H](OC(=O)C(O)c1ccccc1)C2 (mixture of isomers)
result: 0 (no)

query: Same lookup for COC(=O)OC , please.
result: 1 (yes)

query: Same lookup for CC(C)CCCCCO , please.
result: 1 (yes)

query: Same lookup for CCOP(=O)([O-])C(N)=O.[NH4+] , please.
result: 0 (no)

query: Same lookup for Cc1ccc(C(=O)O)c([N+](=O)[O-])c1O , please.
result: 0 (no)

query: Same lookup for O=C1C(Br)=C(Br)C(=O)C(Br)=C1Br , please.
result: 0 (no)

query: Same lookup for Cc1ccc(C(N)=O)cc1 , please.
result: 0 (no)

====

Measured metric: melting point (°C)
The reply should contain only the number, in °C.

query: # input compound: O=C(O)CNC(=O)c1ccccc1 ; wanted: its melting point
result: 192

query: Same lookup for O=c1c2ccccc2sc2ccccc12 , please.
result: 209

query: Same lookup for C=Cc1ccc(F)cc1 , please.
result: -34.5

query: Same lookup for COC(=O)Nc1nc2cc(C(=O)C3CC3)ccc2[nH]1 , please.
result: 250

query: Same lookup for O=C(O)c1cccc(C(=O)O)c1 , please.
result: 347

query: Same lookup for O=C(O)c1cccc(F)c1F , please.
result: 164

query: Same lookup for O=C(O)COc1cc(Cl)c(Cl)cc1Cl , please.
result: 153

query: Same lookup for CCCCCCCCCCCS , please.
result: -3

query: Same lookup for CCc1ccc(O)cc1 , please.
result: 45

query: Same lookup for CC(C)(O)C(C)(C)O , please.
result: 43

query: Same lookup for CN(C)c1ccc(N(C)C)cc1 , please.
result: 51

query: Same lookup for c1ccc2c(c1)cc1ccc3cc4ccccc4c4ccc2c1c34 , please.
result: 282

query: Same lookup for O=C(/C=C/C=C/c1ccc2c(c1)OCO2)N1CCCCC1 , please.
result: 132

====

What melting point was measured for each of the following?
The reply should contain only the number, in °C.

query: # input molecule: COc1ccc2c(c1)O[C@H]1c3ccc(O)cc3OC[C@@H]21 ; wanted: its melting point
result: 128

query: Same lookup for CCCOC(=O)NCCCN(C)C.Cl , please.
result: 64.2

query: Same lookup for CCCCC(C)(O)CC (centres undefined) , please.
result: -83

query: Same lookup for Oc1ccc2c(c1)Cc1ccccc1-2 , please.
result: 168

====

Measured metric: log10 vapour pressure (mmHg)
Write the number on its own, no unit after it.

query: # input compound: C=CCOC(Cn1ccnc1)c1ccc(Cl)cc1Cl (configuration not stated) ; wanted: its log10 vapour pressure (mmHg)
result: -5.92

query: Same lookup for C=CCCCCCCCCCCCCCC , please.
result: -2.58

query: Same lookup for Brc1ccc(Oc2ccccc2)cc1 , please.
result: -2.82

query: Same lookup for c1ccc(N=NNc2ccccc2)cc1 , please.
result: -4.72

query: Same lookup for C=C(C)C(C)CC (configuration not stated) , please.
result: 1.91

query: Same lookup for Nc1c(Cl)cc([N+](=O)[O-])cc1Cl , please.
result: -5.92

query: Same lookup for CCC(CC)C(C)(C)C , please.
result: 1.05

query: Same lookup for Clc1cc2c(c(Cl)c1Cl)Oc1c(Cl)c(Cl)c(Cl)c(Cl)c1O2 , please.
result: -10.2

query: Same lookup for C[Si](C)(Cl)c1ccccc1 , please.
result: -0.14

query: Same lookup for ClCCCBr , please.
result: 0.806

query: Same lookup for Nc1ccc(Nc2ccccc2)cc1 , please.
result: -4.92

query: Same lookup for Cc1ccc(C)c(N)c1 , please.
result: -0.824

query: Same lookup for COc1ccc(C(=O)O)cc1OC , please.
result: -3.61

query: Same lookup for C=C(C)CN(CC)c1c([N+](=O)[O-])cc(C(F)(F)F)cc1[N+](=O)[O-] , please.
result: -4.06

query: Same lookup for CCOC(=O)C(Cl)(Cl)Cl , please.
result: 0.581

query: Same lookup for CCCCCCOCCO , please.
result: -0.81

query: Same lookup for CCOC(=O)c1ccccc1O , please.
result: -1.07

====

What melting point was measured for each of the following?
The reply should contain only the number, in °C.

query: # input compound: CC1=CC[C@@H]2C[C@@H](C[C@]3(CC[C@H](C)[C@@H](C)O3)O2)OC(=O)[C@@H]2C=C(C)[C@@H](O)[C@H]3OCC(=CC=C[C@H](C)C1)[C@]32O ; wanted: its melting point
result: 214

query: Same lookup for Cc1c(Cl)cc(Cl)c(Cl)c1Cl , please.
result: 94

query: Same lookup for O=C(O)C1CCCN1 (racemic) , please.
result: 205

query: Same lookup for CCCCCCCCN(C)C , please.
result: -57

query: Same lookup for c1cnc2[nH]ccc2c1 , please.
result: 106

query: Same lookup for O=C(Cn1ccnc1[N+](=O)[O-])NCc1ccccc1 , please.
result: 189

query: Same lookup for Nc1ccc2nccnc2c1 , please.
result: 159

query: Same lookup for O=C(O)c1cc(Cl)cc(Cl)c1O , please.
result: 220

query: Same lookup for C/C(=C(\CCOC(=O)c1ccccc1)SS/C(CCOC(=O)c1ccccc1)=C(/C)N(C=O)Cc1cnc(C)nc1N)N(C=O)Cc1cnc(C)nc1N , please.
result: 146

query: Same lookup for C=C1C[C@]23C[C@@]1(O)CC[C@H]2[C@@]12C=C[C@H](O)[C@@](C)(C(=O)O1)[C@H]2[C@@H]3C(=O)O , please.
result: 234

query: Same lookup for CCCCCCCCC(=O)CCCCCCCC , please.
result: 53

query: Same lookup for CCCCC(CC)COC(=O)CCCCCCCC(=O)OCC(CC)CCCC (configuration not stated) , please.
result: -78

query: Same lookup for CO[C@H]1C=CO[C@@]2(C)Oc3c(C)c(O)c4c(O)c(cc(O)c4c3C2=O)NC(=O)C(C)=CC=C[C@H](C)[C@H](O)[C@@H](C)[C@@H](O)[C@@H](C)[C@H](OC(C)=O)[C@@H]1C , please.
result: 300

query: Same lookup for CC=CC(=O)O , please.
result: 72

query: Same lookup for CC[N+](CC)(CCNC(=O)C(=O)NCC[N+](CC)(CC)Cc1ccccc1Cl)Cc1ccccc1Cl.[Cl-].[Cl-] , please.
result: 198

query: Same lookup for Cc1cccc(C)c1N(C)C , please.
result: -36

query: Same lookup for COC(=O)c1ccc(C(=O)OC)o1 , please.
result: 112

These measurements were taken from the OPERA property sets (Mansouri et al. 2018).
